system: HOP-92; test: NCI tumour cell line growth inhibition, 48 h
Active and inactive are the calls of the source. Rule as the data show it: active = GI50 up to about 1.1 µM and inactive = higher.
Give measured GI50 for each item. Keep answers brief.

Study these solved cases before continuing.
{"Compound": "C=CCOc1ccc2c(C)cc(=O)oc2c1C", "GI50": "54.3 µM (inactive)"}
{"Compound": "N/N=C1\\C(=O)N(c2ccc(Cl)c(Cl)c2)C(=O)C1C(=O)Nc1ccc(Cl)c(Cl)c1 (stereo unspecified)", "GI50": "48.1 µM (inactive)"}
{"Compound": "Cc1ccc(Cc2n[nH]c(=O)n2/N=C\\CC/C=N\\n2c(Cc3ccc(C)cc3)n[nH]c2=O)cc1", "GI50": "25.1 µM (inactive)"}
{"Compound": "COc1cccc2cc(C(=O)Nc3ccccc3)c(=N)oc12", "GI50": "22.2 µM (inactive)"}
{"Compound": "Cn1cc(C(=O)NCCC(=N)N)cc1NC(=O)C1=[N+](C)C=C(NC(=O)c2cccc(C(=O)NC3=CC(C(=O)Nc4cc(C(=O)NCCC(=N)N)cn4C)=[N+](C)C3)c2)C1", "GI50": "> 100 µM (inactive)"}
{"Compound": "COc1cc(Oc2nc3c(N)cc(C(F)(F)F)cc3nc2-c2ccccc2)cc(OC)c1OC", "GI50": "14.7 µM (inactive)"}

Give one value of GI50 per listed compound.
1. Nc1ccc(C(=O)N/C(=C\c2cccc([N+](=O)[O-])c2)c2nc3cc(Cl)ccc3[nH]2)cc1
2. N#CC(C(=O)CCC(=O)Nc1cccc(Cl)c1)c1ccccc1 (stereo unspecified)

Result string:
24.4 µM (inactive)
> 100 µM (inactive)

Give one value of GI50 per listed compound.
1. CCCSc1ccc2[nH]c(/N=C/c3ccco3)cc2c1
2. COc1ccc(N(CN2C(=O)CCC2OC)C(C)=O)cc1 (stereo unspecified)

Result string:
["81.8 µM (inactive)", "> 100 µM (inactive)"]

###

system: XF498; test: NCI tumour cell line growth inhibition, 48 h
Calls of active or inactive are those of the source. Cut-off read from the data, not from the text of the source: active = GI50 up to about 1.1 µM and inactive = higher.
Lab note: assign the record to one of yes (active), no (inactive)

Reference set (3 entries):
{"Compound": "O=C(Nc1nc2ncn(CCOC(=O)c3ccccc3)c2c(=O)[nH]1)c1ccccc1", "Cat": "no"}
{"Compound": "Cc1ccc(C)c(NC(=O)CCc2nnc(S)[nH]2)c1", "Cat": "no"}
{"Compound": "Cc1ccc(C)c(NC(=O)C(=O)C2C(=O)N(c3ccccc3)N=C2N)c1 (stereo unspecified)", "Cat": "no"}

Query string: Could you kindly confirm the outcome this assay logged for `Cc1ccc(S(=O)(=O)SCc2ccccc2)cc1` ?
Result string: no

Query string: Same question for `Cc1cc2c(c(C(=O)O)c1C)-c1cccc(Cl)c1C2=O` please.
Result string: no

Query string: Same question for `Cn1cc(C(=O)NCCC(=N)N)cc1NC(=O)C1=[N+](C)C=C(NC(=O)c2cccc(C(=O)NC3=CC(C(=O)Nc4cc(C(=O)NCCC(=N)N)cn4C)=[N+](C)C3)c2)C1` please.
Result string: no

Query string: Same question for `Cc1cc(NC(=O)NC(=O)c2ccccc2N(C)C)ccc1Oc1ncc(Br)cn1` please.
Result string: yes

Query string: Same question for `COC(=O)c1ccc(C(=O)OC)c2nc3cc(C)ccc3nc12` please.
Result string: no

Query string: Same question for `COc1ccc(CCN2CCC(C#N)(c3ccc(OC)c(OC)c3)CC2)cc1OC` please.
Result string: no

Query string: Same question for CC(C(=O)N1C(=O)N(C(=O)C(C)C(O)c2ccccc2)C2CCCCC21)C(O)c1ccccc1 (stereo unspecified) please.
Result string: no

Query string: Same question for `Cc1[nH]c2cc([N+](=O)[O-])ccc2c1[N+](=O)[O-]` please.
Result string: no
